- STUDY SYSTEM: T1, Monomeric 8-histidine tagged human EGFRvIII extracellular domain (human, UniProt P00533 298-645)
- T1 construct: Analyte in all SPR assays; not shown: 8-histidine tag
- MEASUREMENT NOTES: SPR, captured by anti-human Fc, 25 C
PROPERTY MEASURED: pKd
Friendly reminder that pKd comes from taking -log10 of the concentration in mol/L.

Using known records, supply pKd for h62G7-EQ/L6 (antibody, V domains shown, Humanized, human IgG1 recombinant antibody; also called h62G7-L6/EQ) VH: QVQLVQSGAEVKKPGASVKVSCKASGYTFTDYTLHWVRQAPGQGLEWMGGIWPITGGTTYNQKFKGRVTMTRDTSTSTVYMELSSLRSEDTAVYYCARGEAQGSWGQGTLVTVSS VL: DVVMTQSPLSLPVTLGQPASISCKSSQSLLYSNGKTYLNWFQQRPGQSPRRLIYQVSKLDSGVPDRFSGSGSGTDFTLKISRVEAEDVGVYYCGQDTHFPLTFGGGTKVEIK
7.36
